Test system: BT-549
Method: NCI tumour cell line growth inhibition, 48 h
Calls of active or inactive are those of the source. No stated cut-off is given here; in the data, active = GI50 up to about 1.1 µM and inactive = higher. Non-standard residues stand in square brackets, D forms with d. Residues, ends and D or L forms follow the SMILES beside them. *: point of attachment. X30 = COC1=CC(=O)N(C(=O)[C@@H](O*)C(C)C)[C@H]1Cc1ccccc1; NMeL = CN[C@@H](CC(C)C)C(=O)O; Cbz = O=C(OCc1ccccc1)*
Measured Attribute: GI50

Molecule	Experimental Target	GI50
COC(=O)NNc1c([N+](=O)[O-])cnn(-c2ccccc2)c1=O	BT-549	1.82 µM (inactive)
C=C(C)c1cc(C(C)(C)C)cc(C(=C)C)c1S(C)(=O)=O	BT-549	> 100 µM (inactive)

Lookup: Entry COc1cccc(C2c3cc4c(cc3OC(NNC(N)=O)C2C)OCO4)c1O (centres undefined) : reported GI50 = ?
Found: 33 µM (inactive)

Lookup: Entry `O=C(O)c1cc(Sc2ccc([N+](=O)[O-])c(C(=O)O)c2)ccc1[N+](=O)[O-]` : reported GI50 = ?
Found: > 100 µM (inactive)

Lookup: Entry `COc1ccc2oc(=N)c(C(=O)Nc3ccccn3)cc2c1` : reported GI50 = ?
Found: > 100 µM (inactive)

Lookup: Entry `O=C1c2ccccc2C(=O)c2c1c1cc(O)ccc1n2Cc1ccc(Cl)cc1Cl` : reported GI50 = ?
Found: 18.5 µM (inactive)

Lookup: Entry COC1=CC(=O)N(C(=O)[C@@H](OC(=O)[C@@H]2CCCN2C(=O)[C@@H]2CCCN2C(=O)[C@H](CC(C)C)N(C)C(=O)[C@@H](NC(=O)[C@@H](NC(=O)OCc2ccccc2)C(C)C)C(C)C)C(C)C)[C@H]1Cc1ccccc1 (Cbz-VV[NMeL]PP-X30) : reported GI50 = ?
Found: 23.1 µM (inactive)

Lookup: Entry `O/N=C1\Nc2ccccc2OCc2cc(Br)c(Br)cc2COc2ccccc2N\C1=N/O` : reported GI50 = ?
Found: 15.1 µM (inactive)

Lookup: Entry `CCC(CC)C(=O)OC[n+]1ccc(-c2c(COC(=O)NC(C)C)c(COC(=O)NC(C)C)c3n2CCC3)cc1` : reported GI50 = ?
Found: > 100 µM (inactive)

Lookup: Entry `Cc1nc(Nc2ccc(F)cc2)c2sc(=S)n(-c3ccc(F)cc3)c2n1` : reported GI50 = ?
Found: 13.3 µM (inactive)

Lookup: Entry `Cc1c2c(n3c(nc4ccccc43)c1C#N)SCC2` : reported GI50 = ?
Found: > 10 µM (inactive)

Lookup: Entry `CC(C)(C)C(=O)c1c(O)c2ccccc2c2ccccc2c1=O` : reported GI50 = ?
Found: 32.4 µM (inactive)

Lookup: Entry `Clc1ccccc1C(Nc1ncccn1)Nc1ncccn1` : reported GI50 = ?
Found: > 100 µM (inactive)

Lookup: Entry `Cc1cc2nc3ccccc3n2c2nc(N)ccc12` : reported GI50 = ?
Found: 68.9 µM (inactive)

Lookup: Entry O=C(O/C=C\OC1CCCC1(c1ccccc1)c1ccccc1)c1ccccc1 (centres undefined) : reported GI50 = ?
Found: 2.12 µM (inactive)

Lookup: Entry COc1ccc2c(c1)C(=O)CC(C(N)=O)C2 (centres undefined) : reported GI50 = ?
Found: > 100 µM (inactive)

Lookup: Entry `Cc1nc(C)c(C(=O)NNC(=O)C[N+](C)(C)C)cc1C(=O)NNC(=O)C[N+](C)(C)C` : reported GI50 = ?
Found: > 100 µM (inactive)

Lookup: Entry `CC(C)(CO[C@H]1C[C@H]2CC[C@@]1(C)C2(C)C)[N+](=O)[O-]` : reported GI50 = ?
Found: 21.5 µM (inactive)
